study target: GLP-1 receptor (GLP-1R) (human, UniProt P43220 24-463)
protocol notes: cell-based or functional assay
Starred links: 1 amine or outer side, 2 acyl side, 3 side chain; linkers in the order of their positions; H or OH if unused. Non-standard residues stand in square brackets, D forms with d. Groups on a side chain read outwards from the residue. Primed or numbered codes have the meaning given here. No end group written: not given here. *: point of attachment. Dodecylbenzoate = dodecylbenzoyl lipid group; γGlu = O=C(O)[C@H](CCC(=O)[*:2])N[*:1]; Stearoyl = CCCCCCCCCCCCCCCCCC(=O)*; αMeF = C[C@](N)(Cc1ccccc1)C(=O)O; αMeK = C[C@](N)(CCCCN)C(=O)O; αMeS = C[C@](N)(CO)C(=O)O; PEG2′ = not defined here; Aib = CC(C)(N)C(=O)O
readout kind: Primary assay EC50 (cAMP), GLP-1R n2 (pM)
Just the number in pM, nothing appended.

>  <binder>
H[Aib]EGS[αMeF]TSDV[αMeS]S[αMeF]LEGEAAK([PEG2′-Stearoyl])E[αMeF]IA[αMeF]VV[αMeK]GG-NH2 [SEQ ID NO 161]

>  <unit string>
pM

>  <measured number>
62

$$$$
>  <binder>
H[Aib]EGS[αMeF]TSDV[αMeS]S[αMeF]LEGEAA[αMeK]E[αMeF]IA[αMeF]VVK([PEG2′-PEG2′-Dodecylbenzoate])GG-NH2 [SEQ ID NO 180]

>  <unit string>
pM

>  <measured number>
1.1

$$$$
>  <binder>
H[Aib]EGS[αMeF]TSDV[αMeS]S[αMeF]LEGEAA[αMeK]E[αMeF]IA[αMeF]VVK([PEG2′-PEG2′-Stearoyl])GG-NH2 [SEQ ID NO 198]

>  <unit string>
pM

>  <measured number>
15

$$$$

Please look at the following binder next.
Q) Which Primary assay EC50 (cAMP), GLP-1R n2 is listed for H[Aib]EGS[αMeF]TSDV[αMeS]S[αMeF]LEGEAA[αMeK]E[αMeF]IA[αMeF]VVK([γGlu-Dodecylbenzoate])GG-NH2 [SEQ ID NO 173] ?
A) 9.2
